Measured OD, listed per entry for reference.
Biological target: first-generation H3 LAH construct H3frThrST (Influenza A virus (H3))
Assay: ELISA, supernate
measuredQuantity: OD

# binder, measuredQuantity, value
measured = [
    ("mAb 7A13 (antibody, V domains shown) VH: QVQLQESAPGLVKPSGTLSLTCAVSGASLSSSDWWTWVRQPPGKGLEWIGEIHHGGSTNSNPSLQSRVTISIDKSKKQFSLKLTSVTVADTAVYYCARAPGADAGPYSENIHHWGQGTLVTVS VL: QLVLTQSPSASASLGASVKLTCTLSSRHSDYAIGWHQQQPGKGPRYLMKLNPDGSHTKGDGIPDRFSGSSSGAERYLTISNLLSEDEADYYCQTWGTGIQVFGGGTRLTVIS", "OD", "0.068 OD"),
    ("mAb 18G6 (antibody, V domains shown) VH: QVQLKESGPGLVKPSETLSLTCTVSGGSISSSNYNWGWIRQPPGKGLEWIGSVYYSGSTYFNPSLKSRVTISVDTSKNQFSLKLTSVTAADTAVYYCARLIAFYYDTNGYTWGQGTLVTVS VL: NSIMTQSPFTLSASVGDKVTITCRASQSISPWLAWYQQKPGKAPKLLIYKASSLETGVPSRFSGSESGTEFTLTISGLQPDDFATYYCQQYSSFARTFGQGTKVEIKR", "OD", "0.071 OD"),
    ("mAb 8F8 (antibody, V domains shown) VH: EVQLLESGGGVVQPGRSLRLSCAASGFMFSSYVMHWVRQPPGKGLEWVAVIWYDGSKTYFADSMRGRLTVSRDNSKNALYLQMNRLRAEDTAVYYCARQQDSGYSGPEVSYYSHYGMDVWGQGTTVIVS VL: QSVLTQSPSASGTPGRAITISCSGSSSNIGSNPVNWYQQLPGAAPKLLIYADEHRPSGVPDRFSGPKSGTSASLAISGLQSEDEADYYCAAWDDSLSGPAVVFGGGTKLTVLG", "OD", "0.071 OD"),
    ("mAb 11J19 (antibody, V domains shown) VH: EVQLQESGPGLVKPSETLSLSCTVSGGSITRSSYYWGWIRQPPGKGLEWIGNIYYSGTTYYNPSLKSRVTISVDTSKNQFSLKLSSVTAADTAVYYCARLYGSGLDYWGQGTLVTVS VL: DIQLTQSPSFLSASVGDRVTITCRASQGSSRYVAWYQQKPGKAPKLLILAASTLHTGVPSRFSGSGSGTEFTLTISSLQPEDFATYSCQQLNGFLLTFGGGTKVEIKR", "OD", "0.075 OD"),
    ("mAb 25J3 (antibody, V domains shown) VH: QVQLQESGPGLVRPSETLSLTCNVSGDSINDYYWSWIRQPPGKGLEWIGYIYYSGSTNYNPSLNSRVTISVEMSKNQFSLILNSVTAADTAVYYCARVDYDSGGSFDPWGQGTLVTVS VL: QSVLTQPPSVSGAPGQRVTISCTGSSSNIGAGYDVHWYQQLPGTAPKLLIYGNSNRPSGVPDRFSGSKSGTSASLAITGLQAEDEADFYCQSYDSRLSGYVFGTGTKVTVLG", "OD", "0.067 OD"),
]
